assayedTarget: Human mTOR (FLAG-TOR) (Homo sapiens, UniProt P42345)
Sequence (P42345 1360-2549 limits assumed): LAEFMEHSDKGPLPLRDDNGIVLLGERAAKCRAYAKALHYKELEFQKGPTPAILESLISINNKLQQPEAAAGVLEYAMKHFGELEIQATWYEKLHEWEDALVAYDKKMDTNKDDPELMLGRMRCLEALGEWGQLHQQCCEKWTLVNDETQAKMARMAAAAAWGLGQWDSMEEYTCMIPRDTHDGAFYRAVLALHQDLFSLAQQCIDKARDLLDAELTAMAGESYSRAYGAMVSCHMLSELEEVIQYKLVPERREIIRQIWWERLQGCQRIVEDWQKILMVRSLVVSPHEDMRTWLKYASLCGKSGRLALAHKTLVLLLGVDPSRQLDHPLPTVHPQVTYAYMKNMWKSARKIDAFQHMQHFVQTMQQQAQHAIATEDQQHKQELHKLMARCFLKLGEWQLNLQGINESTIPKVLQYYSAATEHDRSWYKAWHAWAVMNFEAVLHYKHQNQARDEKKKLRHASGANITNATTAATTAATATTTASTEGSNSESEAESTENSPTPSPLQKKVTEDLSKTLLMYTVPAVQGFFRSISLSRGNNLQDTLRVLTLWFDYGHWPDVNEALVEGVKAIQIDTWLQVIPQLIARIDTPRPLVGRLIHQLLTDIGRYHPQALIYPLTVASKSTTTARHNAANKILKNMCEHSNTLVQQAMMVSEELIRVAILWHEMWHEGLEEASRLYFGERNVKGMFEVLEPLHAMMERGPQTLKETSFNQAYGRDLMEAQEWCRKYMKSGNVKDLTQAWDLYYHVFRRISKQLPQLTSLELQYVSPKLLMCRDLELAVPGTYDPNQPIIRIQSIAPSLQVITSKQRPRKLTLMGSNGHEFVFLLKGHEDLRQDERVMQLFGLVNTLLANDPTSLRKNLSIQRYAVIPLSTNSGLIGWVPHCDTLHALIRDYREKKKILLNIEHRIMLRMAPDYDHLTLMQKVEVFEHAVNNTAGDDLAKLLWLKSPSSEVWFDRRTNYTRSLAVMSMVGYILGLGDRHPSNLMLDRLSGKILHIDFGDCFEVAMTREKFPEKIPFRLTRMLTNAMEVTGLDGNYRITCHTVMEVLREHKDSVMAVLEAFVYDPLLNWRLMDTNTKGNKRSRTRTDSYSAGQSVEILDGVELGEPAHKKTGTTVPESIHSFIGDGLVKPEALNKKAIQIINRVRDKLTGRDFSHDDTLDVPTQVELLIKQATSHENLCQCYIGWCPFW
assayComment: mTOR kinase assay (DELFIA format, purified enzyme)
Assay type: biochemical
testContext: read-out: IC50 mTOR
pIC50: −log10 of the molar value.
propertyName: pIC50

Sample answers from the record:
For O=C(Nc1ccncc1)Nc1ccc(-c2nc(N3CCOCC3)nc(N3CCN(C45CC6CC(CC(C6)C4)C5)CC3)n2)cc1 [Example 640] , write its pIC50. 5.55

For C[C@@H]1COCCN1c1nc(-c2ccc(NC(=O)Nc3ccc(C(=O)O)cc3)cc2)nc(N2CCOC[C@@H]2C)n1 [Example 626] , write its pIC50. 9.00

For CN(C)C1CCN(C(=O)c2ccc(NC(=O)Nc3ccc(-c4nc(N5CCCC5)nc(N5CCOCC5)n4)cc3)cc2)CC1 [Example 602] , write its pIC50. 7.96

For C=C(OCC)c1nc(-c2ccc(NC(=O)Nc3ccncc3)cc2)nc(N2CCOCC2)n1 [Example 199] , write its pIC50. 9.00

For CN(C)CCNC(=O)c1ccc(NC(=O)Nc2ccc(-c3nc(N4CCOCC4)nc(N4CC5CCC4CO5)n3)cc2)cc1 (stereo not shown) [Example 815] , write its pIC50. 9.12

[a] O=C(Nc1ccc(-c2nc(N3CCOCC3)nc(N3CCOCC3)n2)cc1)Nc1cccnc1 [Example 2]
[b] O=C(Nc1ccc(-c2nc(N3CCOCC3)nc(N3CCOCC3)n2)cc1)Nc1cccs1 [Example 4]
Identify the entry with the smaller pIC50: a or b . # answer = label of selected item b

---

assayedTarget: PI3K-γ (Homo sapiens, UniProt P48736)
Sequence (P48736 whole entry, species assumed): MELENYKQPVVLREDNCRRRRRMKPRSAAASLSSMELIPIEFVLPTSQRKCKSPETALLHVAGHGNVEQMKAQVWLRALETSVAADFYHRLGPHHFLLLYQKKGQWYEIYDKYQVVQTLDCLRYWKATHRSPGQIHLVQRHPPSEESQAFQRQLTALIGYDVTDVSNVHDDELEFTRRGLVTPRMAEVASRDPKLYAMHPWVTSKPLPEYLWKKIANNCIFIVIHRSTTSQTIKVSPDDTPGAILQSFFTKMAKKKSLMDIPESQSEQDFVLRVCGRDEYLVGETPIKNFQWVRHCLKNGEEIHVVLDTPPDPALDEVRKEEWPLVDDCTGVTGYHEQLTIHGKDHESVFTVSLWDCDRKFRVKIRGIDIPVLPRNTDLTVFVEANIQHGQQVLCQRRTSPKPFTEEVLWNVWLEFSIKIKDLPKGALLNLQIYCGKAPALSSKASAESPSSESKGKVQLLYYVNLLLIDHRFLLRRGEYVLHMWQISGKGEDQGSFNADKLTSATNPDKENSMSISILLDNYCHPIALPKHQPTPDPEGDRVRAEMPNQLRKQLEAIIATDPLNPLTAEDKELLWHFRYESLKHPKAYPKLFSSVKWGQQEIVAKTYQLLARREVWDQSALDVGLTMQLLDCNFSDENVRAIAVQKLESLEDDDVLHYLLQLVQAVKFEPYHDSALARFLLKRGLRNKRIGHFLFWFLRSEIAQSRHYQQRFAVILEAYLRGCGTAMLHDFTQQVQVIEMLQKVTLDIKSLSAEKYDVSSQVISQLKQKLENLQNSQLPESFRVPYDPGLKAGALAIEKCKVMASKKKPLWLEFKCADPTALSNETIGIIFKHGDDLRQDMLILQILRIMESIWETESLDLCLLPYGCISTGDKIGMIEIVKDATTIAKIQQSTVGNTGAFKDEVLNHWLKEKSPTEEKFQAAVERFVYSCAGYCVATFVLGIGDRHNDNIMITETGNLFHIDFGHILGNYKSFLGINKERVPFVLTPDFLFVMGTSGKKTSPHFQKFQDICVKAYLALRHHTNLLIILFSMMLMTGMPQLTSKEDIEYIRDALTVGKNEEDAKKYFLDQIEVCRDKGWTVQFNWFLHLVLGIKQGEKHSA
assayComment: PI3K-gamma fluorescence polarization assay
testContext: read-out: IC50 PI3Kγ
propertyName: IC50 (nM)

Sample answers from the record:
For C[C@@H]1COCCN1c1nc(-c2ccc(NC(=O)Nc3ccc(C(=O)N4CCN(C)CC4)cc3)cc2)nc(N2CCOC[C@@H]2C)n1 , write its IC50. 104

For O=C(Nc1ccc(-c2nc(N3CCOCC3)nc(N3C4CCC3COC4)n2)cc1)Nc1ccc(Cl)nc1 , write its IC50. 163

For C[C@H]1COCCN1c1nc(-c2ccc(NC(=O)Nc3ccc(C(=O)N4CC[C@H](N(C)C)C4)cc3)cc2)nc(N2C3CCC2COC3)n1 , write its IC50. 86.5

[1] NCCNc1nc(-c2ccc(NC(=O)Nc3cccnc3)cc2)nc(N2CC3CCC(C2)O3)n1
[2] O=C(Nc1ccncc1)Nc1ccc(-c2nc(N3CCOCC3)nc(N3CCN(C45CC6CC(CC(C6)C4)C5)CC3)n2)cc1
[3] O=C(Nc1ccncc1)Nc1ccc(-c2nc(N3CCCCC3)nc(N3CCOCC3)n2)cc1
hey, can you rank those compounds up there by IC50? biggest number first please Write the labels, ordered according to the request. 1, 2, 3

---

assayedTarget: UniProt:P42345
assayComment: mTOR kinase assay (DELFIA format, purified enzyme)
Type: biochemical
testContext: read-out: IC50 mTOR
pIC50: −log10 of the molar value.
propertyName: pIC50

[A] C[C@@H]1COCCN1c1nc(-c2ccc(NC(=O)Nc3ccc(N4CCN(C)CC4)cc3)cc2)nc(C2CCOCC2)n1
[B] O=C(Nc1ccc(C(=O)NCCN2CCCC2)cc1)Nc1ccc(-c2nc(-c3ccccc3)nc(N3CCOCC3)n2)cc1
[C] CCc1nc(-c2ccc(NC(=O)Nc3ccc(C(=O)O)cc3)cc2)nc(N2CCOCC2)n1
[D] CCCC1CCN(C(=O)c2ccc(NC(=O)Nc3ccc(-c4nc(N5CCOCC5)nc(N5CCN(C(=O)N(C)C)CC5)n4)cc3)cc2)CC1
[E] CN(C)c1ccc(NC(=O)Nc2ccc(-c3nc(N4CCOCC4)nc(N4CCC5(CC4)OCCO5)n3)cc2)cc1
# rank above entries by pIC50 (max first, min last) Write the labels, ordered according to the request. A, B, C, E, D
(A: 9.14, B: 8.45, C: 8.10, E: 7.37, D: 6.92)

---

Test system: human breast MDA-MB-361 tumor cell line
assayComment: In vitro cell culture growth assay (MTS), MDA-MB-361
Format: cell-based
testContext: Homo sapiens, MDA-MB-361, 72 h, MTS cell growth assay, three days after drug treatment, MDA-MB-361 cells; read-out: IC50 MDA-MB-361
propertyName: IC50

Sample answers from the record:
For O=C(Nc1ccc(C(=O)O)cc1)Nc1ccc(-c2nc(N3CCCCC3)nc(N3CCOCC3)n2)cc1 [Example 593] , write its IC50. > 1000 nM

For CN(C)C1CCN(C(=O)c2ccc(NC(=O)Nc3ccc(-c4nc(N5CCOCC5)nc(N5C6CCC5COC6)n4)cc3)cc2)CC1 [Example 752] , write its IC50. < 3 nM

For CCN(CC)CCOC(=O)c1ccc(NC(=O)Nc2ccc(-c3nc(N4CCOCC4)nc(N4C5CCC4COC5)n3)cc2)cc1 [Example 40] , write its IC50. < 30 nM

Turning now to a further record.
For CC(=O)c1ccc(NC(=O)Nc2ccc(-c3nc(N4CCOCC4)nc(N4C5CCC4COC5)n3)cc2)cc1 [Example 230] , write its IC50. < 31 nM

---

assayedTarget: Human mTOR (FLAG-TOR) (Homo sapiens, UniProt P42345)
assayComment: mTOR kinase assay (DELFIA format, purified enzyme)
Assay type: biochemical
testContext: read-out: IC50 mTOR
propertyName: IC50 (nM)

For CNCCN(C)C(=O)c1ccc(NC(=O)Nc2ccc(-c3nc(N4CCOCC4)nc(N4C5CCC4COC5)n3)cc2)cc1 [Example 701] , write its IC50. 0.36

[1] CCc1nc(-c2ccc(NC(=O)Nc3ccc(C(=O)N4CCC(c5ccccc5)CC4)cc3)cc2)nc(N2CCOCC2)n1 [Example 320]
[2] O=C(Nc1ccncc1)Nc1ccc(-c2nc(NCC3CNC3)nc(N3CCOCC3)n2)cc1 [Example 105]
Compare the recorded IC50 of 1 and 2 ; state which is larger. # answer = label of selected item 2
(2: 30.5 nM, 1: 12.9 nM)

[a] O=C(Nc1ccc(-c2nc(NCCO)nc(N3CC4CCC(C3)O4)n2)cc1)Nc1cccnc1 [Example 153]
[b] CN(C)CC(=O)Nc1ccc(NC(=O)Nc2ccc(-c3nc(N4CC5CCC(C4)O5)nc(N4CC5CCC(C4)O5)n3)cc2)cc1 [Example 352]
Identify the entry with the smaller IC50: a or b . # answer = label of selected item b
(b: 0.24 nM, a: 15 nM)

[1] C[C@@H]1COCCN1c1nc(-c2ccc(NC(=O)Nc3ccc(C(=O)N4CCN(C)CC4)cc3)cc2)nc(N2CCOC[C@H]2C)n1 [Example 450]
[2] O=C(Nc1ccncc1)Nc1ccc(-c2nc(N3CCN(C(=O)c4ccncc4)CC3)nc(N3CC4CCC(C3)O4)n2)cc1 [Example 113]
Identify the entry with the smaller IC50: 1 or 2 . # answer = label of selected item 1

[P] COC(=O)c1ccc(NC(=O)Nc2ccc(-c3nc(-c4cccs4)nc(N4CCOCC4)n3)cc2)cc1 [Example 560]
[Q] NS(=O)(=O)N1CCC(Oc2nc(-c3ccc(NC(=O)Nc4ccncc4)cc3)nc(N3CCOCC3)n2)CC1 [Example 692]
Compare the recorded IC50 of P and Q ; state which is larger. # answer = label of selected item P
(P: 100 nM, Q: 3.75 nM)

---

assayedTarget: PI3K-γ (Homo sapiens, UniProt P48736)
assayComment: PI3K-gamma fluorescence polarization assay
testContext: read-out: IC50 PI3Kγ
Entries and their pIC50 values follow.
Scale for pIC50: -log10 of concentration given in mol/L; no unit attached.

For Cc1ccc(-c2nc(-c3ccc(NC(=O)Nc4cccc(C(=O)N(C)CCN(C)C)c4)cc3)nc(N3CCOCC3)n2)cc1 , write its pIC50. 5.88

For Oc1cccc(-c2nc(N3CCOCC3)nc(N3C4CCC3COC4)n2)c1 , write its pIC50. 5.88

For CN1CCN(c2ccc(NC(=O)Nc3ccc(-c4nc(N5CCOCC5)nc(N5C6CCC5COC6)n4)cc3)cn2)CC1 , write its pIC50. 7.07

---

assayedTarget: Human mTOR (FLAG-TOR) (Homo sapiens, UniProt P42345)
assayComment: mTOR kinase assay (DELFIA format, purified enzyme)
Type: biochemical
testContext: read-out: IC50 mTOR
Entries and their IC50 values follow.
Answer in nM, number only, no unit symbol.

Give IC50 only, for O=C(Nc1ccc(C(=O)NCCN2CCCC2)cc1)Nc1ccc(-c2nc(N3CCOCC3)nc(N3C4COCC3COC4)n2)cc1 , using Human mTOR (FLAG-TOR) (Homo sapiens, UniProt P42345) data. 0.23

Give IC50 only, for O=C(Nc1ccncc1)Nc1ccc(-c2nc(N3CCOCC3)nc(N3C4COCC3[C@@H](O)C4)n2)cc1 (stereo partly shown) , using Human mTOR (FLAG-TOR) (Homo sapiens, UniProt P42345) data. 2

Give IC50 only, for O=C(Nc1ccncc1)Nc1ccc(-c2nc(N3CCSCC3)nc(N3C4CCC3COC4)n2)cc1 , using Human mTOR (FLAG-TOR) (Homo sapiens, UniProt P42345) data. 3.6

Turning now to a further record.
Give IC50 only, for CN(C)C1CCN(C(=O)c2ccc(NC(=O)Nc3ccc(-c4nc(N5CCOCC5)nc(N5C6CCC5COC6)n4)cc3)cc2)CC1 , using Human mTOR (FLAG-TOR) (Homo sapiens, UniProt P42345) data. 0.29

Data credit: patent US20090304692A1
